AUC listing for selected compounds.
test: Area Under plasma concentration time curve in rat upon peroral administration; type: ADME, organism-based; settings: po
Report the value in ng·h/mL with no unit label.

Query: Requested field: AUC. Item: `CCCC[C@H](NC(=O)OC(C(C)C)C(C)C)C(=O)C(=O)Nc1ccnn1C`
Response: 1800

Query: Would you kindly repeat that for `CCCC[C@H](NC(=O)OC(C(C)C)C(C)C)C(=O)C(=O)Nc1nncs1` ?
Response: 920

Query: Would you kindly repeat that for `CCCC[C@H](NC(=O)OC(C(C)C)C(C)C)C(=O)C(=O)Nc1cc[nH]n1` ?
Response: 1100

Query: Would you kindly repeat that for `CCCC[C@H](NC(=O)OC(C(C)C)C(C)C)C(=O)C(=O)Nc1nccs1` ?
Response: 750

Query: Would you kindly repeat that for `CCCC[C@H](NC(=O)OC(C(C)C)C(C)C)C(=O)C(=O)Nc1ccccn1` ?
Response: 2700

----------
Target: Cathepsin K (Rattus norvegicus, UniProt O35186)
Sequence (O35186 whole entry): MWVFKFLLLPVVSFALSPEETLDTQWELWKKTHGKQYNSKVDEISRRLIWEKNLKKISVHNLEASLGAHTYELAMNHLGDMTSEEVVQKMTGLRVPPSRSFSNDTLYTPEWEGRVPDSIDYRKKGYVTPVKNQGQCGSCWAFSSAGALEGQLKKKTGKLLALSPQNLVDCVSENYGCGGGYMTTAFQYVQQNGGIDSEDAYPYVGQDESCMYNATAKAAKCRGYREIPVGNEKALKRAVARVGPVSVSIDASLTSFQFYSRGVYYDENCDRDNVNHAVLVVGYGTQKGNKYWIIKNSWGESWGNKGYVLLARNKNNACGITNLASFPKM
pIC50 listing for selected compounds.
Recall that pIC50 is obtained by taking minus log10 of the concentration measured in molar.

Guide cases for pIC50, answers given:
>  <SMILES_REPR>
CCCC[C@H](NC(=O)OC(C(C)C)C(C)C)C(=O)C(=O)Nc1cc(-c2ccccc2)n[nH]1

>  <pIC50>
7.92

$$$$
>  <SMILES_REPR>
CCCC[C@H](NC(=O)OC(C(C)C)C(C)C)C(=O)C(=O)Nc1ccnn1CC(C)C

>  <pIC50>
5.57

$$$$

Query: Requested field: pIC50. Item: `CCCC[C@H](NC(=O)OC(C(C)C)C(C)C)C(=O)C(=O)Nc1ccnn1CCC(C)(C)C`
Response: 5.80

Query: Would you kindly repeat that for `CCCC[C@H](NC(=O)OC(C(C)C)C(C)C)C(=O)C(=O)Nc1cc[nH]n1` ?
Response: 7.89

Query: Would you kindly repeat that for `CCCC[C@H](NC(=O)OC(C(C)C)C(C)C)C(=O)C(=O)Nc1ccnn1C1CCCC1` ?
Response: 5.96

----------
Ratio listing for selected molecules.
biological target: Cathepsin (H and K) (Homo sapiens) (UniProt P09668+P43235); experiment: Selectivity for Cathepsins H and K, ratio of IC50; format: protein assay
Sequence (P09668 whole entry, looked up): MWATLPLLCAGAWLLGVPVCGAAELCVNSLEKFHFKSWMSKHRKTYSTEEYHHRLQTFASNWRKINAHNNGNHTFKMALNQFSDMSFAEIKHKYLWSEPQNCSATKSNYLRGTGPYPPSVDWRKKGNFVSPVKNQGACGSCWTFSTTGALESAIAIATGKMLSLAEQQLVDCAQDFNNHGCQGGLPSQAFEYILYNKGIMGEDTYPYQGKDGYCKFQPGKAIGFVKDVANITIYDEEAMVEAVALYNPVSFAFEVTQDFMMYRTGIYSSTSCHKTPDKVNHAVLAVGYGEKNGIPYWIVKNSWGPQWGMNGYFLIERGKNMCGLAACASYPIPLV
Sequence (P43235 whole entry, looked up): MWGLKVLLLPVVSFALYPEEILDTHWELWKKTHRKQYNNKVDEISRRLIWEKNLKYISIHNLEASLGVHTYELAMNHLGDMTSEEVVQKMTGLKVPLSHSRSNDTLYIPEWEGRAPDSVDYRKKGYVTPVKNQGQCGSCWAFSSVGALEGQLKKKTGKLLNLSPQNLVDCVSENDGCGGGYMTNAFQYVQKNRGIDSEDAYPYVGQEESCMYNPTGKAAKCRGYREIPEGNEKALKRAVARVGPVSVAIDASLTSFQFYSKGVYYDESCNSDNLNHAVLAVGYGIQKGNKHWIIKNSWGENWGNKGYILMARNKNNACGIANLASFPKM

>  <SMILES_REPR>
CCCC[C@H](NC(=O)OC(C(C)C)C(C)C)C(=O)C(=O)Nc1ccnn1C1CCC1

>  <Ratio>
> 830

$$$$
>  <SMILES_REPR>
CCCC[C@H](NC(=O)OC(C(C)C)C(C)C)C(=O)C(=O)Nc1ccnn1-c1ccncc1

>  <Ratio>
> 500

$$$$
>  <SMILES_REPR>
CCCC[C@H](NC(=O)OC(C(C)C)C(C)C)C(=O)C(=O)Nc1cc[nH]n1

>  <Ratio>
30

$$$$
>  <SMILES_REPR>
CCCC[C@H](NC(=O)OC(C(C)C)C(C)C)C(=O)C(=O)Nc1cc(-c2ccccc2)[nH]n1

>  <Ratio>
18

$$$$
>  <SMILES_REPR>
CCCC[C@H](NC(=O)OC(C(C)C)C(C)C)C(=O)C(=O)Nc1ccnn1CC(C)C

>  <Ratio>
> 320

$$$$

Query: Requested field: Ratio. Item: `CCCC[C@H](NC(=O)OC(C(C)C)C(C)C)C(=O)C(=O)Nc1[nH]ncc1C`
Response: 2100

Query: Would you kindly repeat that for `CCCC[C@H](NC(=O)OC(C(C)C)C(C)C)C(=O)C(=O)Nc1ccnn1C` ?
Response: > 400

Query: Would you kindly repeat that for `CCCC[C@H](NC(=O)OC(C(C)C)C(C)C)C(=O)C(=O)Nc1[nH]ncc1-c1ccccc1` ?
Response: 1700

Query: Would you kindly repeat that for `CCCC[C@H](NC(=O)OC(C(C)C)C(C)C)C(=O)C(=O)Nc1ccnn1CC1CC1` ?
Response: > 470

----------
Papp listing for selected molecules.
assay: Compound was tested for its cell permeability in the Madin-Darby canine kidney cell monolayer transport assay; type: ADME, Canis lupus familiaris; conditions: dog, MDCK; read-out: Activity
Report the value in ×10⁻⁶ cm/s with no unit label.

Guide cases for Papp, answers given:
>  <SMILES_REPR>
CCCC[C@H](NC(=O)OC(C(C)C)C(C)C)C(=O)C(=O)Nc1cc[nH]n1

>  <PARAMETER>
Papp

>  <OUTPUT_UNIT>
×10⁻⁶ cm/s

>  <REPORTED_RESULT>
48

$$$$
>  <SMILES_REPR>
CCCC[C@H](NC(=O)OC(C(C)C)C(C)C)C(=O)C(=O)Nc1ccnn1C

>  <PARAMETER>
Papp

>  <OUTPUT_UNIT>
×10⁻⁶ cm/s

>  <REPORTED_RESULT>
49

$$$$
>  <SMILES_REPR>
CCCC[C@H](NC(=O)OC(C(C)C)C(C)C)C(=O)C(=O)Nc1ccccn1

>  <PARAMETER>
Papp

>  <OUTPUT_UNIT>
×10⁻⁶ cm/s

>  <REPORTED_RESULT>
21

$$$$
>  <SMILES_REPR>
CCCC[C@H](NC(=O)OC(C(C)C)C(C)C)C(=O)C(=O)Nc1nccs1

>  <PARAMETER>
Papp

>  <OUTPUT_UNIT>
×10⁻⁶ cm/s

>  <REPORTED_RESULT>
23

$$$$

As a next step, examine the molecule that follows.
Query: Requested field: Papp. Item: `CCCC[C@H](NC(=O)OC(C(C)C)C(C)C)C(=O)C(=O)Nc1[nH]ncc1C`
Response: 37

----------
assay: Selectivity as ratio between IC50 against Cathepsin B and IC50 against Cathepsin K
PARAMETER: Ratio

Guide cases for Ratio, answers given:
>  <SMILES_REPR>
CCCC[C@H](NC(=O)OC(C(C)C)C(C)C)C(=O)C(=O)Nc1ccnn1CC(C)C

>  <REPORTED_RESULT>
> 320

$$$$
>  <SMILES_REPR>
CCCC[C@H](NC(=O)OC(C(C)C)C(C)C)C(=O)C(=O)Nc1ccnn1C1CCC1

>  <REPORTED_RESULT>
> 830

$$$$
>  <SMILES_REPR>
CCCC[C@H](NC(=O)OC(C(C)C)C(C)C)C(=O)C(=O)Nc1ccnn1CC1CC1

>  <REPORTED_RESULT>
> 470

$$$$

Query: Requested field: Ratio. Item: `CCCC[C@H](NC(=O)OC(C(C)C)C(C)C)C(=O)C(=O)Nc1[nH]ncc1-c1ccccc1`
Response: 1200

Query: Would you kindly repeat that for `CCCC[C@H](NC(=O)OC(C(C)C)C(C)C)C(=O)C(=O)Nc1ccnn1-c1ccncc1` ?
Response: > 500

Query: Would you kindly repeat that for `CCCC[C@H](NC(=O)OC(C(C)C)C(C)C)C(=O)C(=O)Nc1ccnn1C` ?
Response: > 400

----------
biological target: Cathepsin K (Homo sapiens, UniProt P43235)
Sequence (P43235 whole entry): as the sequence (P43235 whole entry, looked up) above
pIC50: −log10 of the molar value.
Decide using pIC50: a value greater than or equal to 8 is fulfilled, a smaller one is not fulfilled.

Recorded results for 4 molecules are shown here.
>  <SMILES_REPR>
CC(C)C(OC(=O)N[C@H](C(=O)C(=O)NCc1cccs1)C(C)C)C(C)C

>  <ASSIGNED_LABEL>
not fulfilled

$$$$
>  <SMILES_REPR>
CCCC[C@H](NC(=O)OC(C(C)C)C(C)C)C(=O)C(=O)Nc1ccn(C)n1

>  <ASSIGNED_LABEL>
fulfilled

$$$$
>  <SMILES_REPR>
CCCC[C@H](NC(=O)OC(C(C)C)C(C)C)C(=O)C(=O)Nc1cc2ccccc2cn1

>  <ASSIGNED_LABEL>
fulfilled

$$$$
>  <SMILES_REPR>
CCCC[C@H](NC(=O)OC(C(C)C)C(C)C)C(=O)C(=O)Nc1ccnn1CC1CC1

>  <ASSIGNED_LABEL>
not fulfilled

$$$$

Note: attention shifts to another entry.
Query: Reported pIC50 at or above 8? `CCCC[C@H](NC(=O)OC(C(C)C)C(C)C)C(=O)C(=O)Nc1cc(C)n[nH]1`
Response: fulfilled

----------
bioavailability listing for selected compounds.
assay: Bioavailability in rat; format: ADME, organism-based; conditions: in vivo
Kindly write the number and append the unit.

>  <SMILES_REPR>
CCCC[C@H](NC(=O)OC(C(C)C)C(C)C)C(=O)C(=O)Nc1nccs1

>  <REPORTED_RESULT>
18%

$$$$
>  <SMILES_REPR>
CCCC[C@H](NC(=O)OC(C(C)C)C(C)C)C(=O)C(=O)Nc1ccnn1C

>  <REPORTED_RESULT>
28%

$$$$
>  <SMILES_REPR>
CCCC[C@H](NC(=O)OC(C(C)C)C(C)C)C(=O)C(=O)Nc1nncs1

>  <REPORTED_RESULT>
15%

$$$$
>  <SMILES_REPR>
CCCC[C@H](NC(=O)OC(C(C)C)C(C)C)C(=O)C(=O)Nc1ccccn1

>  <REPORTED_RESULT>
58%

$$$$

As a next step, examine the compound that follows.
Query: Requested field: bioavailability. Item: `CCCC[C@H](NC(=O)OC(C(C)C)C(C)C)C(=O)C(=O)Nc1cc[nH]n1`
Response: 41%
